method.summary: Acute toxicity in rat
assay.setup: in vivo, po, female, 7 days
Counter-ions that a name gives are not always drawn.
Task for the reader: assign each of the following compounds its reported LD50 at 168 h.

// solved cases for LD50 at 168 h follow
| compound | value.reported |
| --- | --- |
| O=C(O)c1cc(=O)c2c(OCC(O)COc3cccc4oc(C(=O)O)cc(=O)c34)cccc2o1 [Compound C, disodium chromoglycate] | > 11000 mg/kg |
| O=C(Cn1c(=O)sc2ccc(Cl)cc21)N1CCN(CCO)CC1 [Compound D, hydrochloride] | 3800 mg/kg |

Entry O=C(Cn1c(=O)sc2ccc(Cl)cc21)N1CCC(O)CC1 [Compound A] , LD50 at 168 h reported as > 8000 mg/kg
